- measurement-target: T1, C-terminal human Regnase-1 (amino acids 301 to 599) with N-terminal FLAG tag and C-terminal BirA recognition … (human, UniProt Q5D1E8 301-599)
- T1 sequence: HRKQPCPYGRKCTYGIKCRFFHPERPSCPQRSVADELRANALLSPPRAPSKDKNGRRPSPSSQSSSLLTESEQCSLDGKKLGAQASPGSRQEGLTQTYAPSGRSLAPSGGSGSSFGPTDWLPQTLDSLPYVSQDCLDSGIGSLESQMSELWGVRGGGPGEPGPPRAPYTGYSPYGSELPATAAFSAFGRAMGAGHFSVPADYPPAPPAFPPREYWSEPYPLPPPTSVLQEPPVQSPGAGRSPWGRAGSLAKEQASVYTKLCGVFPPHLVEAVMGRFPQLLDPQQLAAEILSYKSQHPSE
- protocol-text: cell-based or functional assay
reported-endpoint: 50% inhibition concentration, Regnase-1 phosphorylation by TBK1 (AlphaScreen) (µM)

binder	relation	experimental-result
XTSWYKVNWGQD (HELM PEPTIDE1{[meA].T.S.W.Y.K.V.N.W.G.Q.D.[C1CCN([*:1])C1]}$PEPTIDE1,PEPTIDE1,1:R1-12:R3$$$V2.0; SMILES CC(C)[C@@H]1NC(=O)[C@H](CCCCN)NC(=O)[C@H](Cc2ccc(O)cc2)NC(=O)[C@H](Cc2c[nH]c3ccccc23)NC(=O)[C@H](CO)NC(=O)[C@H]([C@@H](C)O)NC(=O)[C@H](C)N(C)C(=O)C[C@@H](C(=O)N2CCCC2)NC(=O)[C@H](CCC(N)=O)NC(=O)CNC(=O)[C@H](Cc2c[nH]c3ccccc23)NC(=O)[C@H](CC(N)=O)NC1=O) [PP1]	>	62.1
XNSWYRIWGLD (HELM PEPTIDE1{[meA].N.S.W.Y.R.I.W.G.L.D.[C1CCN([*:1])C1]}$PEPTIDE1,PEPTIDE1,1:R1-11:R3$$$V2.0; SMILES CC[C@H](C)[C@@H]1NC(=O)[C@H](CCCNC(=N)N)NC(=O)[C@H](Cc2ccc(O)cc2)NC(=O)[C@H](Cc2c[nH]c3ccccc23)NC(=O)[C@H](CO)NC(=O)[C@H](CC(N)=O)NC(=O)[C@H](C)N(C)C(=O)C[C@@H](C(=O)N2CCCC2)NC(=O)[C@H](CC(C)C)NC(=O)CNC(=O)[C@H](Cc2c[nH]c3ccccc23)NC1=O) [PP22]	=	25.8
XRYAVYQWIYPD (HELM PEPTIDE1{[meA].R.Y.A.V.Y.Q.W.I.Y.P.D.[C1CCN([*:1])C1]}$PEPTIDE1,PEPTIDE1,1:R1-12:R3$$$V2.0; SMILES CC[C@H](C)[C@@H]1NC(=O)[C@H](Cc2c[nH]c3ccccc23)NC(=O)[C@H](CCC(N)=O)NC(=O)[C@H](Cc2ccc(O)cc2)NC(=O)[C@H](C(C)C)NC(=O)[C@H](C)NC(=O)[C@H](Cc2ccc(O)cc2)NC(=O)[C@H](CCCNC(=N)N)NC(=O)[C@H](C)N(C)C(=O)C[C@@H](C(=O)N2CCCC2)NC(=O)[C@@H]2CCCN2C(=O)[C@H](Cc2ccc(O)cc2)NC1=O) [PP12]	=	19.6
XPNSSWFKIWD (HELM PEPTIDE1{[C[C@H](C(=O)[*:2])N(C)[*:1]].P.N.S.S.W.F.K.I.W.D.[C1CCN([*:1])C1]}$PEPTIDE1,PEPTIDE1,1:R1-11:R3$$$V2.0; SMILES CC[C@H](C)[C@@H]1NC(=O)[C@H](CCCCN)NC(=O)[C@H](Cc2ccccc2)NC(=O)[C@H](Cc2c[nH]c3ccccc23)NC(=O)[C@H](CO)NC(=O)[C@H](CO)NC(=O)[C@H](CC(N)=O)NC(=O)[C@@H]2CCCN2C(=O)[C@@H](C)N(C)C(=O)C[C@@H](C(=O)N2CCCC2)NC(=O)[C@H](Cc2c[nH]c3ccccc23)NC1=O) [PP6]	=	16.8
